# ASSAY_OVERVIEW: A qHTS for Small Molecule Inhibitors of Shiga Toxin
# SETUP_CONDITIONS: Vero cells, Shiga toxin protein synthesis inhibition reporter; at 38.7 µM
Screen size: about 290,000 compounds; about 27,000 (9.3%) were called active. Cut-off read from the data, not from the text of the source: active = inhibition mostly above about 28% (no sharp cut-off); inactive = mostly below about 43%. The entries come from a sample that favours actives as a whole.
Assign a class; possible classes are active, inactive

# count of solved cases: 2
>  <COMPOUND>
COc1ccc(C2/C=C\CN(Cc3ccco3)C(C)C(=O)N2Cc2ccc(F)cc2)cc1 (stereo not given)

>  <LABEL_CLASS>
inactive

$$$$
>  <COMPOUND>
Cc1ccc(S(=O)(=O)Nc2ccc3ncccc3c2)cc1

>  <LABEL_CLASS>
inactive

$$$$

Req: Recorded test call requested for `COc1ccc(-c2nnc(SCC(=O)c3cccs3)o2)c(OC)c1`
Resp: active

Req: Recorded test call requested for `Cc1ccccc1C(=O)NC(=S)Nc1ccc(N2CCN(C(=O)c3ccccc3)CC2)cc1`
Resp: inactive

Req: Recorded test call requested for `Cn1c(CCNS(=O)(=O)c2ccc(F)cc2)nnc1SCc1cccnc1`
Resp: inactive

Values were extracted from PubChem BioAssay AID2315.
